assay: Half life in rat liver microsomes at 10 ug/ml preincubated for 5 mins followed by NADPH addition measured after 60 mins by UPLC analysis; assay type: ADME, Microsome
Readout label: half-life at 10 ug/ml (h)
Express it in h; write the number only.

Cc1cc(-c2ccc(OCCn3c([N+](=O)[O-])cnc3C)cc2)nc2ccccc12 2.5

Recorded half-life at 10 ug/ml (compound Cc1cc(-c2cccc(OCCn3c([N+](=O)[O-])cnc3C)c2)nc2ccccc12 ): 2.18

====

experiment: Tmax in BALB/c mouse at 50 mg/kg, po administered via gavage by LC-MS/MS analysis; type: ADME, organism-based; conditions: in vivo
Readout label: Tmax

Recorded Tmax (compound Cc1cc(-c2ccc(OCCn3c([N+](=O)[O-])cnc3C)cc2)nc2ccccc12 ): 45 min

====

Entries and their Activity values follow.
system: Leishmania donovani; test: Antileishmanial activity against Leishmania donovani MHOM/IN/80/Dd8 promastigotes infected in BALB/c mouse assessed as reduction in parasite load in liver at 50 mg/kg, ip administered once daily for 5 days measured 7 days post dose by giemsa staining-based assay relative to control; assay type: functional; parameters: scale not given: the % may be the effect or the level left

Recorded Activity (compound Cc1cc(-c2ccc(OCCn3c([N+](=O)[O-])cnc3C)cc2)nc2ccccc12 ): >82.3%

Recorded Activity (compound c1ccc2ncccc2c1 ): 58.2%

Recorded Activity (compound Cc1ncc([N+](=O)[O-])n1CCO ): 40.8%

Recorded Activity (compound Cc1cc(-c2cccc(OCCn3c([N+](=O)[O-])cnc3C)c2)nc2ccccc12 ): >50%

====

assay: Cmax in BALB/c mouse at 50 mg/kg, po administered via gavage by LC-MS/MS analysis; type: ADME, organism-based; parameters: dose 50 mg/kg, route oral; settings: in vivo
Readout label: Cmax (ng/mL)
Express it in ng/mL; write the number only.

Recorded Cmax (molecule Cc1cc(-c2ccc(OCCn3c([N+](=O)[O-])cnc3C)cc2)nc2ccccc12 ): 6860

====

assay: Stability in rat liver microsomes assessed as parent compound remaining at 10 ug/ml preincubated for 5 mins followed by NADPH addition measured after 60 mins by UPLC analysis; format: ADME, Microsome; details: read-out: Stability
Entries and their remaining at 1 h, 10 ug/ml values follow.
Express it in %; write the number only.

Recorded remaining at 1 h, 10 ug/ml (molecule Cc1cc(-c2cccc(OCCn3c([N+](=O)[O-])cnc3C)c2)nc2ccccc12 ): 72.8

Recorded remaining at 1 h, 10 ug/ml (molecule Cc1cc(-c2ccc(OCCn3c([N+](=O)[O-])cnc3C)cc2)nc2ccccc12 ): 76

====

assay: Toxicity in BALB/c mouse infected with Leishmania donovani MHOM/IN/80/Dd8 promastigotes assessed as death at 12.5 to 200 mg/kg, ip administered once daily for 5 days measured up to 7 days post dose; assay type: organism-based; conditions: in vivo

Molecule	Activity
c1ccc2ncccc2c1 [QUINOLINE]	Non-Toxic
Cc1cc(-c2cccc(OCCn3c([N+](=O)[O-])cnc3C)c2)nc2ccccc12	Non-Toxic
Cc1cc(-c2ccc(OCCn3c([N+](=O)[O-])cnc3C)cc2)nc2ccccc12	Non-Toxic
Cc1ncc([N+](=O)[O-])n1CCO [METRONIDAZOLE]	Non-Toxic

====

tested on: Leishmania donovani; experiment: Antileishmanial activity against Leishmania donovani MHOM/IN/80/Dd8 amastigotes harboring luciferase reporter gene infected in mouse J774 cells after 48 hrs by Giemsa staining-based microscopic assay; assay type: functional, organism-based; conditions: MHOM/IN/80/Dd8, J774, 48 h
Readout label: pIC50
Here pIC50 is given on a logarithmic scale as minus log10 of the concentration in mol/L.

The examples below pair each entry with its known result.
Compound	pIC50
CCCCCCCCCCCCCCCCOP(=O)([O-])OCC[N+](C)(C)C [MILTEFOSINE]	5.02
Cc1cc(-c2cccc(OCCn3c([N+](=O)[O-])cnc3C)c2)nc2ccccc12	5.04

Now consider the entry below.
Recorded pIC50 (compound Cc1cc(-c2ccc(OCCn3c([N+](=O)[O-])cnc3C)cc2)nc2ccccc12 ): 5.39
